ASSAY_TARGET: KRAS G13C (Homo sapiens, UniProt P01116+P62937, G13C)
Sequence (P01116 1-169 isoform P01116-2 G13C): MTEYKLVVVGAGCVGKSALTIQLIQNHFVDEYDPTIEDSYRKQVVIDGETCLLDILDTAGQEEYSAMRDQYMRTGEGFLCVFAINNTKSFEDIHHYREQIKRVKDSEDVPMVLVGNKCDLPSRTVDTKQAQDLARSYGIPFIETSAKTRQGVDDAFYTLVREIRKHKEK
Sequence (P62937 whole entry): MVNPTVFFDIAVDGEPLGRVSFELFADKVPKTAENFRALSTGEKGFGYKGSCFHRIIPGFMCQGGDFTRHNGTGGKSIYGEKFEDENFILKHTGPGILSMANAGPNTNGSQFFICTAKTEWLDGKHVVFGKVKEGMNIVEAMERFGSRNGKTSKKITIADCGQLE
TEST_NAME: Disruption of BRAF RBD interaction with Ras (FRET / MOA assay, with Cyclophilin A)
Format: biochemical
MEASUREMENT_PARAMETERS: read-out: KRAS G13C FRET data, IC50
pIC50: −log10 of the molar value.
MEASUREMENT_LABEL: pIC50

- COMPOUND: "CCn1c(-c2cccnc2[C@H](C)OC)c2c3cc(ccc31)-c1csc(n1)C[C@H](NC(=O)[C@H](C(C)C)N(C)C(=O)N1CC([C@@H](C)NC)C1)C(=O)N1CCC[C@H](N1)C(=O)OCC(C)(C)C2 (atropisomer, axis not shown)"
  ASSAY_TARGET: "KRAS G13C (Homo sapiens, UniProt P01116+P62937, G13C)"
  RESULT: "6.00 to 7.00"
- COMPOUND: "CCn1c(-c2cc(N3CCN(C)CC3)cnc2[C@H](C)OC)c2c3cc(ccc31)-c1csc(n1)C[C@H](NC(=O)[C@H](C(C)C)N(C)C(=O)N(C)C)C(=O)N1CCC[C@H](N1)C(=O)OCC(C)(C)C2 (atropisomer, axis not shown)"
  ASSAY_TARGET: "KRAS G13C (Homo sapiens, UniProt P01116+P62937, G13C)"
  RESULT: "7.00 to 8.00"
- COMPOUND: "CCn1c(-c2cccnc2[C@H](C)OC)c2c3cc(ccc31)-c1csc(n1)C[C@H](NC(=O)[C@H](C(C)C)N(C)C(=O)N1CC3CC(C1)N3C)C(=O)N1CCC[C@H](N1)C(=O)OCC(C)(C)C2"
  ASSAY_TARGET: "KRAS G13C (Homo sapiens, UniProt P01116+P62937, G13C)"
  RESULT: "6.00 to 7.00"
- COMPOUND: "CCn1c(-c2cccnc2[C@H](C)OC)c2c3cc(ccc31)-c1csc(n1)C[C@H](NC(=O)[C@H](C(C)C)N(C)C(=O)N1CC(n3nc(C)cc3C)C1)C(=O)N1CCC[C@H](N1)C(=O)OCC(C)(C)C2"
  ASSAY_TARGET: "KRAS G13C (Homo sapiens, UniProt P01116+P62937, G13C)"
  RESULT: "6.00 to 7.00"
- COMPOUND: "CCn1c(-c2cccnc2[C@H](C)OC)c2c3cc(ccc31)-c1csc(n1)C[C@H](NC(=O)[C@H](C(C)C)N(C)C(=O)N1CC(N3CCN(C)CC3)C1)C(=O)N1CCC[C@H](N1)C(=O)OCC(C)(C)C2"
  ASSAY_TARGET: "KRAS G13C (Homo sapiens, UniProt P01116+P62937, G13C)"
  RESULT: "6.00 to 7.00"
- COMPOUND: "CCn1c(-c2cccnc2[C@H](C)OC)c2c3cc(ccc31)-c1csc(n1)C[C@H](NC(=O)[C@H](C(C)C)N(C)C(=O)N1CCC13CCN(C)CC3)C(=O)N1CCC[C@H](N1)C(=O)OCC(C)(C)C2"
  ASSAY_TARGET: "KRAS G13C (Homo sapiens, UniProt P01116+P62937, G13C)"
  RESULT: "6.00 to 7.00"
- COMPOUND: "CCn1c(-c2cccnc2[C@H](C)OC)c2c3cc(ccc31)-c1csc(n1)C[C@H](NC(=O)[C@H](C(C)C)N(C)C(=O)N1CC(N(C)C3CC3)C1)C(=O)N1CCC[C@H](N1)C(=O)OCC(C)(C)C2 (atropisomer, axis not shown)"
  ASSAY_TARGET: "KRAS G13C (Homo sapiens, UniProt P01116+P62937, G13C)"
  RESULT: "6.00 to 7.00"
- COMPOUND: "CCn1c(-c2cccnc2[C@H](C)OC)c2c3cc(ccc31)-c1cc(O)cc(c1)C[C@H](NC(=O)[C@H](C(C)C)N(C)C(=O)C1CC13CC3)C(=O)N1CCC[C@H](N1)C(=O)OCC(C)(C)C2 (stereo partly drawn)"
  ASSAY_TARGET: "KRAS G13C (Homo sapiens, UniProt P01116+P62937, G13C)"
  RESULT: "7.00 to 8.00"

Identify the measured pIC50 of `CCn1c(-c2cccnc2[C@H](C)OC)c2c3cc(ccc31)-c1csc(n1)C[C@H](NC(=O)[C@H](C(C)C)N(C)C(=O)N1CCN(C)CC1)C(=O)N1CCC[C@H](N1)C(=O)OCC(C)(C)C2` for KRAS G13C (Homo sapiens, UniProt P01116+P62937, G13C).
6.00 to 7.00

* * *

ASSAY_TARGET: NRAS Q61R (Homo sapiens, UniProt P01111+P62937, Q61R)
Sequence (P01111 whole entry Q61R): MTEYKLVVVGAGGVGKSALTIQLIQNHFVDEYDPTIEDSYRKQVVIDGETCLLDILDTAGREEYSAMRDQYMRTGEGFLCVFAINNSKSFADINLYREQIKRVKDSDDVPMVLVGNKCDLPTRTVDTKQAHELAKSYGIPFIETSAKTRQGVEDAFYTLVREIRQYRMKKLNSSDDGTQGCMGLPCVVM
Sequence (P62937 whole entry): as the sequence (P62937 whole entry) above
TEST_NAME: Disruption of BRAF RBD interaction with Ras (FRET / MOA assay, with Cyclophilin A)
Type: biochemical
MEASUREMENT_PARAMETERS: NRAS Q61R; read-out: NRAS Q61R FRET data IC50
Description: Disruption of B-Raf Ras-Binding Domain (BRAF^RBD) Interaction with K-Ras by Compounds of the Invention (Also Called a FRET Assay or an MOA Assay) Note—The following protocol describes a procedure for monitoring disruption of K-Ras G12C (GMP-PNP) binding to BRAF^RBD by a compound of the invention. This protocol may also be executed substituting other Ras proteins or nucleotides. […]
# IC50 per entry

- COMPOUND: "CCn1c(-c2cccnc2[C@H](C)OC)c2c3cc(ccc31)-c1csc(n1)C[C@H](NC(=O)[C@H](C(C)C)N(C)C(=O)N1CC([C@H](C)NC)C1)C(=O)N1CCC[C@H](N1)C(=O)OCC(C)(C)C2"
  IC50: "100 to 1000 nM"

# IC50 lookup, item `C=CC(=O)N1CC[C@H](C(=O)N(C)[C@H](C(=O)N[C@H]2Cc3cc(O)cc(c3)-c3ccc4c(c3)c(c(-c3cncc(COC)c3)n4CC)CC(C)(C)COC(=O)[C@@H]3CCCN(N3)C2=O)C(C)C)C1`
1000 to 10000 nM

Now the compound CCn1c(-c2cccnc2[C@H](C)OC)c2c3cc(ccc31)-c1csc(n1)C[C@H](NC(=O)[C@H](C(C)C)N(C)C(=O)N1CC(S(=O)(=O)NC)C1)C(=O)N1CCC[C@H](N1)C(=O)OCC(C)(C)C2 (atropisomer, axis not shown)
100 to 1000 nM

Now the compound CCn1c(-c2cc(N3CCN(C)CC3)cnc2[C@H](C)OC)c2c3cc(ccc31)-c1cccc(c1)C[C@H](NC(=O)[C@H](C(C)C)N(C)C(=O)[C@@H]1OCC[C@@H]1c1ccccc1)C(=O)N1CCC[C@H](N1)C(=O)OCC(C)(C)C2 (atropisomer, axis not shown)
10 to 100 nM

Now the compound `C=CC(=O)N1CC[C@H](C(=O)N(C)[C@H](C(=O)N[C@H]2Cc3cc(O)cc(c3)-c3ccc4c(c3)c(c(-c3cccnc3)n4CC)CC(C)(C)COC(=O)[C@@H]3CCCN(N3)C2=O)C(C)C)C1`
> 10000 nM

Now the compound C=CC(=O)N(C)[C@H]1CN(C(=O)N(C)[C@H](C(=O)N[C@H]2Cc3nc(cs3)-c3ccc4c(c3)c(c(-c3cccnc3[C@H](C)OC)n4CC)CC(C)(C)COC(=O)C3CCCN(N3)C2=O)C(C)C)C[C@H]1F (stereo partly shown)
100 to 1000 nM

Now the compound `C=CC(=O)N1CC[C@H](C(=O)N(C)[C@H](C(=O)N[C@H]2Cc3cc(O)cc(c3)-c3cc(F)c4c(c3)c(c(-c3ccccc3CCOC)n4CC)CC(C)(C)COC(=O)[C@@H]3CCCN(N3)C2=O)C(C)C)C1`
> 10000 nM

* * *

ASSAY_TARGET: KRAS G12S (Homo sapiens, UniProt P01116+P62937, G12S)
Sequence (P01116 1-169 isoform P01116-2 G12S limits assumed, one chain of several): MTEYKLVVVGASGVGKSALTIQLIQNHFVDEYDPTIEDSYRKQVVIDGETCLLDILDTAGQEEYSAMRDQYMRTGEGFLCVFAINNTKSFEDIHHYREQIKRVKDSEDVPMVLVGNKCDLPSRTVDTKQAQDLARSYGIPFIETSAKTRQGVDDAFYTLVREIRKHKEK
TEST_NAME: Disruption of BRAF RBD interaction with Ras (FRET / MOA assay, with Cyclophilin A)
Type: biochemical
MEASUREMENT_PARAMETERS: read-out: KRAS G12S FRET data, IC50
pIC50: −log10 of the molar value.
MEASUREMENT_LABEL: pIC50

// worked examples, pIC50 included
- COMPOUND: "CCn1c(-c2cnccc2COC)c2c3cc(ccc31)-c1cc(O)cc(c1)C[C@H](NC(=O)[C@H](C(C)C)N(C)C(=O)[C@H]1CCOC1)C(=O)N1CCC[C@H](N1)C(=O)OCC(C)(C)C2 [Example A26]"
  MEASUREMENT_LABEL: "pIC50"
  RESULT: "6.00 to 7.00"
- COMPOUND: "CCn1c(-c2cccnc2[C@H](C)OC)c2c3cc(ccc31)-c1csc(n1)C[C@H](NC(=O)[C@H](C(C)C)N(C)C(=O)N1CC(CN(C)C)(OC)C1)C(=O)N1CCC[C@H](N1)C(=O)OCC(C)(C)C2 (atropisomer, axis not shown) [Example A575]"
  MEASUREMENT_LABEL: "pIC50"
  RESULT: "5.00 to 6.00"
- COMPOUND: "CCn1c(-c2cccnc2[C@H](C)OC)c2c3cc(ccc31)-c1csc(n1)C[C@H](NC(=O)[C@H](C(C)C)N(C)C(=O)N1C3CC1CS(=O)(=O)C3)C(=O)N1CCC[C@H](N1)C(=O)OCC(C)(C)C2 [Example A496]"
  MEASUREMENT_LABEL: "pIC50"
  RESULT: "5.00 to 6.00"

Identify the measured pIC50 of CCn1c(-c2cccnc2[C@H](C)OC)c2c3cc(ccc31)-c1csc(n1)C[C@H](NC(=O)[C@H](C(C)C)N(C)C(=O)N(C)C)C(=O)N1CCC[C@H](N1)C(=O)OCC(C)(C)C2 (racemic) [Example A136] for KRAS G12S (Homo sapiens, UniProt P01116+P62937, G12S).
6.00 to 7.00
